cell viability by entry:
# System: Calu-3
# measurement_notes: cell viability relative to DMSO; higher = less toxic
# measurement_parameters: 72 h; 10 nM
Give just the number in %; leave the unit off.

[
  {
    "compound": "CCn1c2ccccc2c2cc(Nc3ccnc(NCCCN4CCOCC4)n3)ccc21",
    "outcome_measure": "cell viability",
    "test_value": 98
  },
  {
    "compound": "COc1ccccc1Oc1c(NS(=O)(=O)c2ccc(C)cn2)nc(-c2ccncc2)nc1OC",
    "outcome_measure": "cell viability",
    "test_value": 96.1
  },
  {
    "compound": "COC(=O)/C=C/C(=O)OCCN1C(=O)CCC1=O [diroximel-fumarate]",
    "outcome_measure": "cell viability",
    "test_value": 112
  },
  {
    "compound": "CO[C@@]1(NC(=O)C2SC(=C(C(N)=O)C(=O)O)S2)C(=O)N2C(C(=O)O)=C(CSc3nnnn3C)CS[C@@H]21 (stereo not given in full)",
    "outcome_measure": "cell viability",
    "test_value": 94.1
  }
]

Now consider a different compound.
## Input Send back Calu-3 cell viability of CCCCCCCCCCCCCCCCCC(=O)OCC(O)CO (stereo not given) only.
## Output 101
